# Test description: qHTS RealTime-Glo MT Cell Viability Assay in HEK293 cells - 32 hour (AID 1224868); also: top concentration of the series differs between compounds; % is scaled to controls: 0 for no effect and ±100 for the full control effect; nearly all actives have a fitted effect of over 50% in size
# Particulars: RealTime-Glo luminescence; series mostly up to 76.8 µM
# From the text: National Center for Advancing Translational Sciences [NCATS] NIH Chemical Genomics Center [NCGC] U.S. Environmental Protection Agency [EPA] National Institutes of Environmental Health Sciences [NIEHS] National Toxicology Program [NTP] U.S. Food and Drug Administration [FDA] Measure of cell viability is critical in the cell-base assay. Analysis of cell viability is necessary for the characterization of cell responses to cytotoxic drugs and environmental stress. […]
Results filed as inconclusive are left out. Activity calls are given as the source filed them. Calls follow the shape of the dose curve; as a rule, active = well fitted cell-killing curve with a large enough effect in the repeat runs; inconclusive = weak or mixed curves, or effect the other way; inactive = flat fitted curve, though single readings scatter.
Reported property: activity change, negative = cytotoxic

Please fill in: activity change, negative = cytotoxic reported for C=C(C)C1CC=C(C)C(=O)C1 (stereo not given) = inactive

Please fill in: activity change, negative = cytotoxic reported for `O=C1c2ccccc2C(=O)c2cc(Cl)ccc21` = -1.41% [at 6.97 µM] (inactive)

Please fill in: activity change, negative = cytotoxic reported for `CC(C)=CCC/C(C)=C/COC=O` = inactive

Please fill in: activity change, negative = cytotoxic reported for CC1CCc2c(N3CCC(O)CC3)c(F)cc3c(=O)c(C(=O)O)cn1c23 (stereo not given) = inactive

Please fill in: activity change, negative = cytotoxic reported for `CCC(=O)CC` = inactive

Next:
Please fill in: activity change, negative = cytotoxic reported for CCCCCCCCCCCCCCC(=O)NC(CO)CCCCCCCCCCCCCC (stereo not given) = inactive

Please fill in: activity change, negative = cytotoxic reported for `Cc1ccc(C)c([N+](=O)[O-])c1` = inactive

Please fill in: activity change, negative = cytotoxic reported for `Cc1c(Cl)cccc1Cl` = inactive

Please fill in: activity change, negative = cytotoxic reported for CCCCOCC(C)O (stereo not given) = inactive

Please fill in: activity change, negative = cytotoxic reported for `CCCCCCCCCCCCCCCCCCOCCO` = -2.29% [at 15.8 µM] (inactive)

Please fill in: activity change, negative = cytotoxic reported for `COc1nc(N)nc2nc[nH]c12` = inactive
